# Test system: ventral prostate and seminal vesicle of immature castrated male Sprague Dawley rats
# Measurement notes: Ventral Prostate and Seminal Vesicle Weight in vivo Assay (antagonist activity, with testosterone propionate)
# Design: key: level 1 agonist active if it produced greater than or equal to 30% stimulation of levator ani or ventral prostate at 30 mg/kg; level 2 agonist active if it produced greater than or equal to 5% but less than 30% stimulation of levator ani or ventral prostate at 30 mg/kg; listed herein as “inactive” as they did not meet the specified criteria defined above
# Protocol conditions: ventral prostate wet weight, test compound oral plus testosterone propionate 2 mg/kg s.c., five days, criteria at 30 mg/kg
Measured parameter: Inhibition of prostate (non-weight prostate weight, mg)

See these solved cases before continuing.
[[record]]
molecule = "CC12CC(C(F)(F)F)=NN1C(N)=N/C2=N\\c1ccc([N+](=O)[O-])c(C(F)(F)F)c1 (stereo not shown)"
observed_measurement = "inactive"

[[record]]
molecule = "C[C@@]12CC(C(F)(F)F)=NN1C(N)=NC2=Nc1ccc(C#N)c(C(F)(F)F)c1.O [Compound 18]"
observed_measurement = "inactive"

[[record]]
molecule = "CCOC(=O)C1=NN2C(N)=N/C(=N\\c3ccc(C#N)c(C(F)(F)F)c3)C2(C)C1 (stereo not shown)"
observed_measurement = "inactive"

[[record]]
molecule = "CC12CC=NN1C(N)=N/C2=N\\c1ccc(C#N)c(C(F)(F)F)c1 (stereo not shown)"
observed_measurement = "inactive"

[[record]]
molecule = "CCC12CC(C(F)(F)F)=NN1C(N)=N/C2=N\\c1ccc(C#N)c(C(F)(F)F)c1 (stereo not shown)"
observed_measurement = "inactive"


Moving on to another molecule below.
Give recorded Inhibition of prostate (non-weight prostate weight, mg) with ventral prostate and seminal vesicle of immature castrated male Sprague Dawley rats for the following molecule: C[C@]12CC(C(F)(F)F)=NN1C(N)=NC2=Nc1ccc(C#N)c(C(F)(F)F)c1.O [Compound 17]
inactive

====

change in vivo at 30 mg/kg listing for selected compounds.
# Tested on: ventral prostate and levator ani of immature castrated male Sprague Dawley rats
# Measurement notes: Ventral Prostate and Levator ani Weight in vivo Assay (agonist activity)
# Protocol conditions: Rattus norvegicus, 120 h, levator ani wet weight, once daily for five days, oral, vehicle = 0%, testosterone propionate = 100%, criteria at 30 mg/kg, read-out: % levator ani Stimulation

[[record]]
compound = "C[C@]12CC(C(F)(F)F)=NN1C(N)=N/C2=N\\c1ccc(C#N)c(C(F)(F)F)c1"
measured_parameter = "change in vivo at 30 mg/kg"
observed_measurement = "≥ 30%"

[[record]]
compound = "CCOC(=O)C1=NN2C(N)=N/C(=N\\c3ccc(C#N)c(C(F)(F)F)c3)C2(C)C1 (stereo not shown)"
measured_parameter = "change in vivo at 30 mg/kg"
observed_measurement = "5 to 30%"

[[record]]
compound = "C[C@@]12CC(C(F)(F)F)=NN1C(N)=N/C2=N\\c1ccc(C#N)c(C(F)(F)F)c1"
measured_parameter = "change in vivo at 30 mg/kg"
observed_measurement = "≥ 30%"


Which change in vivo at 30 mg/kg is reported for this compound? CC12CC(C(F)(F)F)=NN1C(=N)O/C2=N\c1ccc(C#N)c(C(F)(F)F)c1 (stereo not shown)
≥ 30%

Which change in vivo at 30 mg/kg is reported for this compound? C[C@]12CC(C(F)(F)F)=NN1C(NC(=O)Nc1ccc(I)cc1)=N/C2=N\c1ccc(C#N)c(C(F)(F)F)c1
≥ 30%

Which change in vivo at 30 mg/kg is reported for this compound? CC12CC(c3c(F)c(F)c(F)c(F)c3F)=NN1C(N)=N/C2=N\c1ccc(C#N)c(C(F)(F)F)c1 (stereo not shown)
5 to 30%

Which change in vivo at 30 mg/kg is reported for this compound? CC12CC(C(F)(F)F)=NN1C(N)=N/C2=N\c1ccc(C#N)c(C(F)(F)F)c1 (stereo not shown)
≥ 30%

Which change in vivo at 30 mg/kg is reported for this compound? CCc1c(/N=C2\N=C(N)N3N=C(C(F)(F)F)CC23C)ccc(C#N)c1C(F)(F)F (stereo not shown)
5 to 30%

Which change in vivo at 30 mg/kg is reported for this compound? CCC12CC(C(F)(F)F)=NN1C(N)=N/C2=N\c1ccc(C#N)c(C(F)(F)F)c1 (stereo not shown)
5 to 30%

Which change in vivo at 30 mg/kg is reported for this compound? C[C@]12CC(C(F)(F)F)=NN1C(NC(=O)C(F)(F)F)=N/C2=N\c1ccc(C#N)c(C(F)(F)F)c1
≥ 30%
